- Test system: 7G8
- test.details: qHTS profiling for inhibitors of Plasmodium falciparum proliferation (AID 504749); note: nearly all actives have a fitted effect of over 60% in size
- condition.context: P. falciparum in erythrocytes, SYBR Green DNA, 72 h; series mostly up to 28.7 µM
- Experimental: NIH National Institute of Allergy and Infectious Diseases [NIAID] NIH Chemical Genomics Center [NCGC] […] Because mature erythrocytes lack DNA, only Plasmodium-derived DNA is detected. NCGC Assay Protocol Summary: The SYBR Green viability assay was adapted from a method described previously (Plouffe et al., 2008). […] The following morning, fluorescence intensity at 485(14) nm excitation and 535(25) nm emission wavelengths was measured on an EnVision (Perkin Elmer) plate reader. […]
Inconclusive results are not listed. Activity calls are given as the source filed them. Calls come from the whole dose curve; as a rule, active = well fitted inhibition curve with a large enough effect; inconclusive = small, poorly fitted or top-dose-only effect; inactive = flat fitted curve, though single readings scatter.
// allowed return values: true (1) = active, false (0) = inactive

query: Assay outcome for O=C(O)[C@@H](O)[C@@H](O)[C@H](O)[C@H](O)CO : what was it?
result: true (1)

query: Assay outcome for C=C1CC[C@H](O)C/C1=C/C=C1\CCC[C@]2(C)[C@@H]([C@H](C)CCCC(C)C)CC[C@@H]12 : what was it?
result: true (1)

query: Assay outcome for CC(C)(C)NC[C@@H](O)c1ccc(O)c(CO)n1 : what was it?
result: false (0)

query: Assay outcome for COc1cccc2c1C(=O)c1c(O)c3c(c(O)c1C2=O)C[C@](O)(C(=O)CO)C[C@@H]3O[C@H]1C[C@H](N)[C@@H](O)[C@H](C)O1 : what was it?
result: false (0)

query: Assay outcome for O=C(O)[C@@H](O)[C@@H](O)[C@H](O)C(=O)CO : what was it?
result: false (0)
